From: patent US20160002357A1

Biological target: T1, P-cadherin-ECD1-3-Fc protein (human P-cadherin-Fc) (human, UniProt P22223 108-440)
T1 construct: Construct was expressed with signal peptide and pro-peptide (PACE co-transfected to process the propeptide); not shown: hinge and CH2 and CH3 domains of human IgG1
T1 sequence (P22223 108-440): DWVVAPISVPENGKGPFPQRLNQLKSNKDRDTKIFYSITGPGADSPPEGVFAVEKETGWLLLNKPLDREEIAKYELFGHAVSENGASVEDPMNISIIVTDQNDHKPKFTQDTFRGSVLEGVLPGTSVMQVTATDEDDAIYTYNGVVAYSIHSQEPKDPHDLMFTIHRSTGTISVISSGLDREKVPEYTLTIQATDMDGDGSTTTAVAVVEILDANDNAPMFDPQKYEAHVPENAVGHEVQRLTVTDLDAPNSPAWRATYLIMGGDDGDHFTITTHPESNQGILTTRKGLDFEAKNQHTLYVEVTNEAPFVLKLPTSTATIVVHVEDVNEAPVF
Assay: phage scFv ELISA, coated P-cadherin-ECD1-3-Fc
Please respond with reported % of binding of Clone #153 to human P-cadherin-Fc for every item in the list.
// note: answer is a bare numeric in %

What value of % of binding of Clone #153 to human P-cadherin-Fc has been recorded for this entry: anti-P-cadherin scFv 153 alanine-mutant L2.4-Ala (scFv, V domains shown, scFv on phage) VH: EVQLVQSGAEVKKPGASVKVSCKASGYTFTSYGISWVRQAPGQGLEWMGWISAYNGNTNYAQKLQGRVTMTTDTSTSTAYMELRSLRSDDTAVYYCATIDTANAFGIWGQGTMVTVSS VL: QSVLTQPPSVSAAPGQKVTISCSGSSSNIGNNYVSWYQQLPGTAPKLLIYDNNARPSGIPDRFSGSKSGTSATLGITGLQTGDEADYYCGTWDSSLSGVVFGGGTKLTVL
161

What value of % of binding of Clone #153 to human P-cadherin-Fc has been recorded for this entry: anti-P-cadherin scFv 153 alanine-mutant L1.3-Ala (scFv, V domains shown, scFv on phage) VH: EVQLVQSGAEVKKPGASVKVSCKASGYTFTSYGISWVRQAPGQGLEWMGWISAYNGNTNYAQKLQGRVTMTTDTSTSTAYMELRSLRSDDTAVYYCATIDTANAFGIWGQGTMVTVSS VL: QSVLTQPPSVSAAPGQKVTISCSGASSNIGNNYVSWYQQLPGTAPKLLIYDNNKRPSGIPDRFSGSKSGTSATLGITGLQTGDEADYYCGTWDSSLSGVVFGGGTKLTVL
165

What value of % of binding of Clone #153 to human P-cadherin-Fc has been recorded for this entry: anti-P-cadherin scFv 153 alanine-mutant L3.11-Ala (scFv, V domains shown, scFv on phage) VH: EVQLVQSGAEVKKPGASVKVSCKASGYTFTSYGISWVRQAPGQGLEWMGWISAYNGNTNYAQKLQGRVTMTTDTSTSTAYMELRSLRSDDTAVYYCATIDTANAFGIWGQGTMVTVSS VL: QSVLTQPPSVSAAPGQKVTISCSGSSSNIGNNYVSWYQQLPGTAPKLLIYDNNKRPSGIPDRFSGSKSGTSATLGITGLQTGDEADYYCGTWDSSLSGVAFGGGTKLTVL
104
